Property: TL1A Binding Level (Late); scope: individual binders
# Target Or Test System: T1, human TL1A extracellular domain with N-terminal HIS and FLAG tag (human, UniProt O95150 72-251)
# T1 construct: the whole entry is named; also called TNFSF15
# T1 sequence: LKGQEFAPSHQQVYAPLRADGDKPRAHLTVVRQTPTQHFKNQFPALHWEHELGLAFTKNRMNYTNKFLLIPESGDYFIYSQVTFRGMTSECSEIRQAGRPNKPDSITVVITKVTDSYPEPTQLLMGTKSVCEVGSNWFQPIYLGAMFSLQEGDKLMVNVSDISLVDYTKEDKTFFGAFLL
# Test Description: SPR Run 7, antibody on Protein A, TL1A 5 ug/mL, timepoint 220
Supply the numeric figure in RU, leaving out any unit text.

Worked cases, answers included:
320-539 (antibody, human IgG1, name in Kabat numbering, V domains shown, full-length human IgG1, lambda) VH: QVQLVQSGAEVKKPGASVKVSCKASGYTFTSYDINWVRQAPGQGLEWMGWLNPNSGATGYAQKFQGRVTMTADRSTSTAYMELSSLRSEDTAVYYCAREVPETAAFEYWGQGTLVTVSS VL: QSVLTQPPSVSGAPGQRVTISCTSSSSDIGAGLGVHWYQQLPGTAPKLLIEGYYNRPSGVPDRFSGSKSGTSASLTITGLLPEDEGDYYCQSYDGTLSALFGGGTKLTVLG	159
320-538 (antibody, human IgG1, name in Kabat numbering, V domains shown, full-length human IgG1, lambda) VH: QVQLVQSGAEVKKPGASVKVSCKASGYTFTSYDINWVRQAPGQGLEWMGWLNPNSWNTGYAQKFQGRVTMTADRSTSTAYMELSSLRSEDTAVYYCAREVPETAAFEYWGQGTLVTVSS VL: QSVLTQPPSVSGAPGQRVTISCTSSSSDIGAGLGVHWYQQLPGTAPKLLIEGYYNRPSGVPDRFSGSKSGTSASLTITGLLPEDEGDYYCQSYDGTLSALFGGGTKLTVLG	49
320-574 (antibody, human IgG1, name in Kabat numbering, V domains shown, full-length human IgG1, lambda) VH: QVQLVQSGAEVKKPGASVKVSCKASGYTFTSYDINWVRQAPGQGLEWMGWLNPNSGNTGYDQKFQGRVTMTADRSTSTAYMELSSLRSEDTAVYYCAREVPETAAFEYWGQGTLVTVSS VL: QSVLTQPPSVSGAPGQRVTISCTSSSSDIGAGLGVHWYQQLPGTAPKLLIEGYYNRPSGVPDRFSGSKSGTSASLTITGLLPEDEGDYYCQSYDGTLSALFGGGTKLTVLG	130
320-501 (antibody, human IgG1, name in Kabat numbering, V domains shown, full-length human IgG1, lambda) VH: QVQLVQSGAEVKKPGASVKVSCKASGYTFTSYDINWVRQAPGQGLEWMGWLHPNSGNTGYAQKFQGRVTMTADRSTSTAYMELSSLRSEDTAVYYCAREVPETAAFEYWGQGTLVTVSS VL: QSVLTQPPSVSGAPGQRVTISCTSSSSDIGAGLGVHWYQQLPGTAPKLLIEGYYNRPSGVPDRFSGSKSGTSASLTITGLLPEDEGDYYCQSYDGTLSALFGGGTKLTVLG	108

# input for lookup
Given 320-495 (antibody, human IgG1, name in Kabat numbering, V domains shown, full-length human IgG1, lambda) VH: QVQLVQSGAEVKKPGASVKVSCKASGYTFTSYDINWVRQAPGQGLEWMGWKNPNSGNTGYAQKFQGRVTMTADRSTSTAYMELSSLRSEDTAVYYCAREVPETAAFEYWGQGTLVTVSS VL: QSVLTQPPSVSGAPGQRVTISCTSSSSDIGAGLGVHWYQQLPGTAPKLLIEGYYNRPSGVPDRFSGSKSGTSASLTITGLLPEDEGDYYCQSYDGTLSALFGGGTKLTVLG , state its recorded TL1A Binding Level (Late).
77
